// data source = patent US6506772B1

biological target: human adenosine A2A receptor (Homo sapiens, UniProt P29274); construct: expressed in transfected cells; host or cells: CHO cells, Semliki Forest virus expression system; membrane preparation; experiment: Human adenosine A2A receptor [3H]-SCH-58261 binding assay; conditions: recombinant human A2A in CHO cell membranes, [3H]-SCH-58261, Cheng-Prussoff; read-out: Ki hA2A
Sequence (P29274 whole entry): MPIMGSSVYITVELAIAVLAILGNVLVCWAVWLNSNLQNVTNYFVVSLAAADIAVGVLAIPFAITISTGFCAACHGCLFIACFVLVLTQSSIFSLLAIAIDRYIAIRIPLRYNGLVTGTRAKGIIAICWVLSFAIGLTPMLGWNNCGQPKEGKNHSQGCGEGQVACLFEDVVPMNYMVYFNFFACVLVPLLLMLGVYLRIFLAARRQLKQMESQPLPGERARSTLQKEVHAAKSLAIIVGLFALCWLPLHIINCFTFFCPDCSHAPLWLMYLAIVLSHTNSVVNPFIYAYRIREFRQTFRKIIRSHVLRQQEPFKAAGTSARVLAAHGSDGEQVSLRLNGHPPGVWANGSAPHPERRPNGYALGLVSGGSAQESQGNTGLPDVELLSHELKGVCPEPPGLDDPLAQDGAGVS
pKi: −log10 of the molar value.
quantityKind: pKi

// worked examples, pKi included
CC1C=CC(C)N1C(=O)c1cc(N)n2nc(-c3ccccn3)nc2c1 (stereo not drawn) :: 7.12
CCCN(C)C(=O)c1cc(N)n2nc(-c3ccccn3)nc2c1 :: 6.93
CCN(C(=O)c1cc(N)n2nc(-c3nccs3)nc2c1)C1CCCCC1 :: 7.09

(A) CC(C)N(Cc1ccccc1)C(=O)c1cc(N)n2nc(-c3ccccn3)nc2c1
(B) CCN(C)C(=O)c1cc(N)n2nc(-c3ccccn3)nc2c1
(C) CC1CCCCN1C(=O)c1cc(N)n2nc(-c3ccccn3)nc2c1 (stereo not drawn)
Q: Arrange the 3 entries by pKi so the values rise. List the labels, following the order given in the request.
A: B, C, A

(I) CC(=O)N(C)C1CCN(C(=O)c2cc(N)n3nc(-c4ccc(Br)o4)nc3c2)C1 (stereo not drawn)
(II) COC[C@@H]1CCCN1C(=O)c1cc(N)n2nc(-c3ccccn3)nc2c1
(III) Nc1cc(C(=O)N2CCCCCCC2)cc2nc(-c3ccccn3)nn12
(IV) CN(C)C(=O)[C@@H]1CCCN1C(=O)c1cc(N)n2nc(-c3nccs3)nc2c1
Q: In this exercise, place the 4 compounds in ascending sequence of their recorded pKi. Your answer should be the labels, listed in the requested order.
A: IV, II, I, III

----------
target: human adenosine A2A receptor (Homo sapiens); construct: expressed in transfected cells; host or cells: CHO cells, Semliki Forest virus expression system; membrane preparation; assay: Human adenosine A2A receptor [3H]-SCH-58261 binding assay; conditions: calculated ratio of the affinity to the HA1 receptor to the HA2a receptor
quantityKind: selectivity (A1/A2a)

Here's what some known entries look like.
CCN(C(=O)c1cc(N)n2nc(-c3ccc(Br)o3)nc2c1)C(C)C :: 36.8
CCN(Cc1ccccc1F)C(=O)c1cc(N)n2nc(-c3cccnc3)nc2c1 :: 5.7
CCCN(C)C(=O)c1cc(N)n2nc(-c3ccc(Cl)o3)nc2c1 :: 28.3
CCN(C)C(=O)c1cc(N)n2nc(-c3ccc(Cl)o3)nc2c1 :: 24.0

(P) CCCCN(C)C(=O)c1cc(N)n2nc(-c3nccs3)nc2c1
(Q) CC1CCCN1C(=O)c1cc(N)n2nc(-c3nccs3)nc2c1 (stereo not drawn)
(R) CCN(CC)C(=O)c1cc(N)n2nc(-c3ccccn3)nc2c1
(S) Nc1cc(C(=O)NCc2ccccc2Br)cc2nc(-c3cccs3)nn12
(T) Nc1cc(C(=O)NCc2ccc(Cl)cc2)cc2nc(-c3ccc(Cl)o3)nn12
Q: Could you please sort these 5 entries by selectivity (A1/A2a) from high to low? Field: ranking. Enter the labels in the order requested.
A: Q, R, P, S, T

----------
target: human adenosine A2A receptor (Homo sapiens, UniProt P29274); construct: expressed in transfected cells; host or cells: CHO cells, Semliki Forest virus expression system; membrane preparation; test: Human adenosine A2A receptor [3H]-SCH-58261 binding assay; conditions: calculated ratio of the affinity to the HA1 receptor to the HA2a receptor
quantityKind: selectivity (A1/A2a)

Past entries and their recorded results:
CC1CN(C(=O)c2cc(N)n3nc(-c4ccc(Cl)o4)nc3c2)CC(C)O1 (stereo not shown) :: 28.3
CCCCN(Cc1ccccc1)C(=O)c1cc(N)n2nc(-c3cccnc3)nc2c1 :: 5.2

(P) Nc1cc(C(=O)N2CC=CCC2)cc2nc(-c3nccs3)nn12
(Q) CCN(Cc1ccccc1)C(=O)c1cc(N)n2nc(-c3ccc(OC)s3)nc2c1
Q: For the two items P and Q , which reports the higher selectivity (A1/A2a) value? Please identify the chosen entry by its label.
A: P

----------
molecular target: HA1 adenosine receptor (Homo sapiens, UniProt P30542); experiment: Human adenosine A1 receptor affinity (Ki hA1); assay type: binding
Sequence (P30542 whole entry): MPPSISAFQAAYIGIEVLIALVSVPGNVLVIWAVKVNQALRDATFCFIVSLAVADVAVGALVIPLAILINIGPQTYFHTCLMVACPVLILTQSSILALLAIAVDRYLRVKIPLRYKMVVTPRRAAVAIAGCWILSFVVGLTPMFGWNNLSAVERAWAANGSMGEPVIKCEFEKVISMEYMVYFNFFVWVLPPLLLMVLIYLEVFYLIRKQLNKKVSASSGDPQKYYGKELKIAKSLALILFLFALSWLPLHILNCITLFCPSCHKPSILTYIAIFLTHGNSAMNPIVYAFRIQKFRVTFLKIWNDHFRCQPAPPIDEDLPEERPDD
quantityKind: Ki (nM)

Nc1cc(C(=O)N2CCCC2)cc2nc(-c3ccccn3)nn12 [Example 410] :: 1450
CC(C)N(C)C(=O)c1cc(N)n2nc(-c3ccccn3)nc2c1 [Example 411] :: 1410
CCN(C(=O)c1cc(N)n2nc(-c3nccs3)nc2c1)C1CCCCC1 [Example 383] :: 1130

----------
biological target: human adenosine A2A receptor (Homo sapiens); construct: expressed in transfected cells; host or cells: CHO cells, Semliki Forest virus expression system; membrane preparation; assay: Human adenosine A2A receptor [3H]-SCH-58261 binding assay; settings: calculated ratio of the affinity to the HA1 receptor to the HA2a receptor
quantityKind: selectivity (A1/A2a)

(I) C=CCN(C)C(=O)c1cc(N)n2nc(-c3nccs3)nc2c1 [Example 283]
(II) Cc1ccc(-c2nc3cc(C(=O)NCc4ccc(Cl)cc4)cc(N)n3n2)o1 [Example 212]
(III) Cc1ccsc1-c1nc2cc(C(=O)NC3CCc4ccccc43)cc(N)n2n1 (stereo not drawn) [Example 187]
Q: Given 3 compounds, produce a descending ranking by selectivity (A1/A2a). Please write the labels in the order that was asked for.
A: I, II, III
(I: 27.0, II: 3.3, III: 1.0)

----------
target: human adenosine A2A receptor (Homo sapiens, UniProt P29274); construct: expressed in transfected cells; host or cells: CHO cells, Semliki Forest virus expression system; membrane preparation; experiment: Human adenosine A2A receptor [3H]-SCH-58261 binding assay; settings: affinity to human adenosine A2A receptor; read-out: Ki HA2A
quantityKind: Ki (nM)

Example entries and their recorded answers appear below.
Nc1cc(C(=O)N2CCc3ccccc3C2)cc2nc(-c3ccc(Br)o3)nn12 [Example 347] :: 13.3
CCCCCN(C)C(=O)c1cc(N)n2nc(-c3nccs3)nc2c1 [Example 292] :: 108
CC(C)N(Cc1ccccc1)C(=O)c1cc(N)n2nc(-c3cccnc3)nc2c1 [Example 86] :: 252
CCCN(CC1CC1)C(=O)c1cc(N)n2nc(-c3ccc(Br)o3)nc2c1 [Example 298] :: 2.2

(a) CCCCNC(=O)c1cc(N)n2nc(-c3ccoc3)nc2c1 [Example 98]
(b) COc1ccc(-c2nc3cc(C(=O)NCc4ccccc4)cc(N)n3n2)s1 [Example 62]
Q: Identify the item whose Ki is the smaller number: a or b Identify your selection by its label.
A: a

----------
molecular target: human adenosine A2A receptor (Homo sapiens); construct: expressed in transfected cells; host or cells: CHO cells, Semliki Forest virus expression system; membrane preparation; test: Human adenosine A2A receptor [3H]-SCH-58261 binding assay; details: affinity to human adenosine A2A receptor; read-out: Ki HA2A
quantityKind: Ki (nM)

The following compounds have reported results that may help.
CN(Cc1ccccc1)C(=O)c1cc(N)n2nc(-c3ccccc3)nc2c1 :: 32.8
COc1ccc(-c2nc3cc(C(=O)NCc4cccnc4)cc(N)n3n2)s1 :: 333
Cn1cccc1-c1nc2cc(C(=O)NCc3ccccc3Cl)cc(N)n2n1 :: 54.3
Nc1cc(C(=O)N2CCOCC2)cc2nc(-c3ccco3)nn12 :: 299
Nc1cc(C(=O)N2CC=C(c3ccccc3)CC2)cc2nc(-c3ccc(Br)o3)nn12 :: 21.8
CCN(CC)C(=O)c1cc(N)n2nc(-c3ccccn3)nc2c1 :: 106

(a) CCN(Cc1ccccc1F)C(=O)c1cc(N)n2nc(-c3cccnc3)nc2c1
(b) CCCCNC(=O)c1cc(N)n2nc(-c3ccccn3)nc2c1
(c) CCCCN(C)C(=O)c1cc(N)n2nc(-c3ccc(Br)o3)nc2c1
(d) Cc1ccc(-c2nc3cc(C(=O)N4CCCC4)cc(N)n3n2)s1
Q: List from greatest to least Ki. Please express your ranking as an ordered list of the labels.
A: a, d, b, c
(a: 144 nM, d: 52.2 nM, b: 34.3 nM, c: 6.5 nM)

----------
Molecular target: human adenosine A2A receptor (Homo sapiens, UniProt P29274)
Construct: expressed in transfected cells; host or cells: CHO cells, Semliki Forest virus expression system; membrane preparation
Assay: Human adenosine A2A receptor [3H]-SCH-58261 binding assay
Conditions: affinity to human adenosine A2A receptor; read-out: Ki HA2A
Procedure: Human Adenosine A2A Receptor The human adenosine A2A receptor was recombinantly expressed in chinese hamster ovary (CHO) cells using the semliki forest virus expression system. […] Assay plates were incubated for 1 hour at room temperature before centrifugation and then bound ligand determined using a Packard Topcount scintillation counter. IC50 values were calculated using a non-linear curve fitting program and Ki values calculated using the Cheng-Prussoff equation.
pKi: −log10 of the molar value.
quantityKind: pKi

CCN(CC)C(=O)c1cc(N)n2nc(-c3nccs3)nc2c1 [Example 120] :: 7.11
Cc1ccc(-c2nc3cc(C(=O)NC4CCCCC4)cc(N)n3n2)s1 [Example 195] :: 6.96
Nc1cc(C(=O)NC2CCCCC2)cc2nc(-c3ccc(Br)o3)nn12 [Example 165] :: 7.05
Nc1cc(C(=O)NCc2ccccc2Cl)cc2nc(-c3ccccc3O)nn12 [Example 159] :: 6.98
Nc1cc(C(=O)NCCc2ccccc2Cl)cc2nc(-c3ccccn3)nn12 [Example 50] :: 6.92
